System: MCF-7, MDA-MB-231, and HCC1954 cell lines
Assay: [3H]-thymidine incorporation assay, summary over cancer cell lines
Type: cell-based
Details: Homo sapiens; 24 h, MCF-7, MDA-MB-231, HCC1954; read-out: IC50 of DNA synthesis inhibition, range over cell lines
Protocol: Following a 24 h cell treatment, the incorporation of [^3H]-thymidine into the DNA of the breast tumor and normal cells was used to measure the antiproliferative activity of Les-6287. The MCF-7, MDA-MB-231, HCC1954, and MCF-10A cells were seeded into six-well plates (density 3 × 10^5 cells/well) and cultured for 24 h. […] The effect of compounds on DNA synthesis was expressed as % of the control (non-treated cells).
pIC50: −log10 of the molar value.
value.type: pIC50

Which pIC50 is listed for O=C1CC(N2C(=O)C(=CC(Cl)=Cc3ccc([N+](=O)[O-])cc3)SC2=S)C(=O)N1c1ccc(O)cc1 (stereo not shown) ?
5.44 to 5.63

* * *

Tested on: MCF-7 cells
Test: MTT assay
Type: cell-based
Conditions: Homo sapiens, MCF7, MCF-7, 48 h, read-out: IC50, µM (M ± SD)
value.type: IC50 (µM)
State just the number; it will be interpreted in µM.

Known results for molecules:
O=C1CC(N2C(=O)C(=CC(Cl)=Cc3ccc([N+](=O)[O-])cc3)SC2=S)C(=O)N1c1ccc(Br)cc1 (stereo not shown) ... 2.18
O=C1CC(N2C(=O)C(=CC(Cl)=Cc3ccc([N+](=O)[O-])cc3)SC2=S)C(=O)N1c1ccc(O)cc1 (stereo not shown) ... 1.43

Which IC50 is listed for O=C1CC(N2C(=O)C(=CC(Cl)=Cc3ccc([N+](=O)[O-])cc3)SC2=S)C(=O)N1c1ccc(Cl)cc1 (stereo not shown) ?
3.54

Which IC50 is listed for COc1cccc2c1C(=O)c1c(O)c3c(c(O)c1C2=O)C[C@@](O)(C(=O)CO)C[C@@H]3O[C@H]1C[C@H](N)[C@H](O)[C@H](C)O1 [Dox, doxorubicin, reference compound] ?
0.18

* * *

Each record here notes measured pIC50.
System: MCF-10A cells
Assay: Clonogenic assay
Type: cell-based
Details: Homo sapiens, 72 h exposure, 14 days culture, read-out: IC50 (M ± SD) in clonogenic assay
Experimental: The clonogenic assay was carried out utilizing the previously published methodology. The MCF-7, MDA-MB-231, HCC1954, and MCF-10A cells (500 cells/2 mL) were seeded in a 12-well plate overnight. Afterward, studied derivatives or doxorubicin (1, 2.5, 5, 10, and 50 µM) were added to cells. […] The colonies were recorded by ImageJ software (Version 1.30). […] The effect of compounds on the colony-forming ability of cells was expressed as the percentage of colonies compared to the control.
pIC50: −log10 of the molar value.

Known results for compounds:
O=C1CC(N2C(=O)C(=CC(Cl)=Cc3ccc([N+](=O)[O-])cc3)SC2=S)C(=O)N1c1ccc(O)cc1 (stereo not shown) ... < 4.30
COc1cccc2c1C(=O)c1c(O)c3c(c(O)c1C2=O)C[C@@](O)(C(=O)CO)C[C@@H]3O[C@H]1C[C@H](N)[C@H](O)[C@H](C)O1 [Dox, doxorubicin, reference compound] ... 6.33
O=C1CC(N2C(=O)C(=CC(Cl)=Cc3ccc([N+](=O)[O-])cc3)SC2=S)C(=O)N1c1ccc(Br)cc1 (stereo not shown) ... < 4.30

Let's switch to this compound now.
Which pIC50 is listed for O=C1CC(N2C(=O)C(=CC(Cl)=Cc3ccc([N+](=O)[O-])cc3)SC2=S)C(=O)N1c1ccc(Cl)cc1 (stereo not shown) ?
< 4.30

Each recorded value in this set is attributed to paper PMC11352273.
